The measured values listed here are drawn from PubChem BioAssay AID208.

System: HT29 intrarenal xenograft, nude mice, tumor weight change
Test: NCI In Vivo Anticancer Drug Screen. Data for tumor model HT29;CX-1 Human Adenocarcinoma (MER+) (intrarenal inoculation) in NU/NU BALB/C (nude) mice
Conditions: endpoint: mean tumor weight change; dose: 600.0 mg/kg/injection; schedule: Q04DX004 (sc); vehicle: saline; higher = larger tumour
Inconclusive results are not listed.
Documented T/C across a set of compounds

Solved cases (4 shown):
compound: CC(C)C(N)C(=O)Nc1nncs1 (stereo not drawn)
assayed_system: HT29 intrarenal xenograft, nude mice, tumor weight change
T/C: 68 % of control

compound: OCC1OC(n2cnc3c(=S)nc[nH]c32)C(O)C1O (stereo not drawn)
assayed_system: HT29 intrarenal xenograft, nude mice, tumor weight change
T/C: 103 % of control

compound: COc1cc(Cc2nccc3cc(OC)c(OC)cc23)c(C(C)=O)cc1OC
assayed_system: HT29 intrarenal xenograft, nude mice, tumor weight change
T/C: 33 % of control

compound: COc1cc2c(ccc3c4cc(OC)c(OC)cc4c[n+](C)c23)cc1O
assayed_system: HT29 intrarenal xenograft, nude mice, tumor weight change
T/C: 75 % of control

Q: Consider the compound `O=C1CCC(=O)N1CO` and give its measured T/C.
Ans: 74 % of control

Q: Check N#CC(OC1OC(COC2OC(CO)C(O)C(O)C2O)C(O)C(O)C1O)c1ccccc1 (stereo not drawn) too.
Ans: 96 % of control

Q: Ok, now CCOC(=O)C(N)CSC(=O)NC (stereo not drawn)
Ans: 59 % of control

Q: Cool, now `O=C(O)CP(=O)(O)O`
Ans: 51 % of control

----------
Each entry below lists one item and its recorded T/C value.
Test system: HT29 intrarenal xenograft, nude mice, tumor weight change
Test: NCI In Vivo Anticancer Drug Screen. Data for tumor model HT29;CX-1 Human Adenocarcinoma (MER+) (intrarenal inoculation) in NU/NU BALB/C (nude) mice
Conditions: endpoint: mean tumor weight change; dose: 2400.0 mg/kg/injection; schedule: Q04DX004 (sc); vehicle: saline with Tween-80; higher = larger tumour
Protocol: The antitumor activity of compounds was measured in mice bearing transplantable tumors. Survival or tumor size were measured and the results are expressed as the measurement made in the treated group (T) divided by the measurement made in the vehicle treated control group (C). The tumor model used in this assay is HT29;CX-1 Human Adenocarcinoma (MER+) (intrarenal inoculation) in NU/NU BALB/C (nude) mice
Records with an inconclusive call do not appear.

compound: Nc1nc(-c2ccccc2)c(Br)c(=O)[nH]1
T/C: 102 % of control

Q: What does the record list as T/C for `Cn1ccc(=Nc2ccc(NC(=O)c3ccc(N=c4ccn(C)c5ccc([N+](=O)[O-])cc45)cc3[N+](=O)[O-])cc2)cc1` ?
Ans: 156 % of control

Q: Okay, and `COc1cc(C(C)(C)C)cc(OC)c1C(O)(c1c(OC)cc(C(C)(C)C)cc1OC)c1c(OC)cc(C(C)(C)C)cc1OC` ?
Ans: 61 % of control

Q: Subsequent entry: `C[C@]12CC[C@H](O)CC1=CC[C@@H]1[C@@H]2CC[C@]2(C)C(=O)CC[C@@H]12`
Ans: 73 % of control

Q: Now the same for `OC1(CSc2ccccc2)CCCCC1`
Ans: 68 % of control

Q: Try the compound `Cc1cc2cc3cc(C)c(N)cc3nc2cc1N`
Ans: 77 % of control
